assay: in vitro; set-up: Viability of infected HeLa host cells, resazurin conversion, bulk resorufin fluorescence relative to DMSO; conditions: human, hela cells; bulk resorufin, mean of 3

compound | viability at 28.5 h, 10 µM / %
O=C1Oc2nc3ccccc3cc2CN1C1CC1 | 103
CC(=O)N1CCc2sccc2C1c1ccccc1NCc1ccoc1 (stereo not drawn) [c28e] | 87.9
FC(F)(F)c1ccc(N2CCNCC2)nc1OCc1ccc2c(c1)OCCO2 [c46e] | 97.2
O=C(N/N=C/c1ccc(Sc2cccc3cccnc23)o1)c1cccc(F)c1 [c10e] | 89.9
Cc1ccc2[nH]c3c(c2c1)CCOC31CCN(Cc2ccccc2-c2ccccc2)CC1 [c22e] | 86.9
CN(C(=O)c1ccc(Cl)c(Cl)c1)[C@H]1CCC[C@H]1N1CCCC1 [c12e] | 92.7
O=C(CSc1nnc(-c2cccnc2)o1)c1ccccc1 [c35e] | 87
O=C(Nc1ccc(F)c(F)c1)NC1CCC2CN(CCOc3ccccc3)CC2C1 (stereo not drawn) | 95.3
N#Cc1c(Nc2cccc(C(F)(F)F)c2)sc(C(=O)c2ccc3c(c2)OCO3)c1N | 77.1
O=[N+]([O-])c1ccc(-n2cnc3ccccc32)c([N+](=O)[O-])c1 [c41e] | 101
CC(Cc1nc(-c2nccn2C)cs1)n1cc(Cl)cn1 (stereo not drawn) [c14e] | 110
CCCN(CCC)CCc1cccc2c1CCN2C(=O)c1cc2ccccc2s1 [c15e] | 99.9
O=C(NCCc1c[nH]c2ccc(Cl)cc12)c1c(F)ccc(Cl)c1F [c42e] | 103
CCCCc1ccc(Nc2csc(N)n2)cc1 [c11e] | 92.8
O=C(CC1CCN(CCc2ccccc2)CC1)Nc1cccc(-n2cccn2)c1 | 88.5

---

test: in vitro; set-up: Viability of infected HeLa host cells, resazurin conversion, bulk resorufin fluorescence relative to DMSO; conditions: human, hela cells; bulk resorufin, mean of 3
measure: viability at 28.5 h, 3 µM (%)

molecule | experimental_result
CN(C(=O)c1ccc(Cl)c(Cl)c1)[C@H]1CCC[C@H]1N1CCCC1 [c12e] | 85.2
CCCCc1ccc(NC(=N)Nc2nc(C)cc(C)n2)cc1 [c33e] | 98.2
N#Cc1c(Nc2cccc(C(F)(F)F)c2)sc(C(=O)c2ccc3c(c2)OCO3)c1N [c8e] | 81.6
CC(Cc1nc(-c2nccn2C)cs1)n1cc(Cl)cn1 (stereo not shown) [c14e] | 108

---

assay: in vitro; conditions: human, hela cells, % viability

compound | viability at 28.5 h, 10 µM [%]
Cc1nc(C2CCN(C(=O)CCC3CCCO3)CC2)c2sccn12 (stereo not drawn) | 106
COc1cccc(OCC2CCCN(C(=O)CCc3cnn(C)c3)C2)c1 (stereo not drawn) | 85
CSc1ccc(CNCCc2c[nH]c3ccccc23)cc1 | 93.4
CNC(=O)Cn1nc(C)c2cnn(-c3ccccc3)c2c1=O | 92.8
CN(CC(=O)NCc1ccccn1)S(=O)(=O)c1ccc(Br)cc1 | 94.4
Cc1nc(C2CCCC2)cc([C@H]2CN3CC[C@H]2C[C@@H]3CNC(=O)c2ccco2)n1 | 109
COC(=O)c1cscc1NC(=O)c1cnc(-c2ccc(Cl)cc2)c(-c2ccco2)c1 | 104
C[C@@H]1CN2C[C@H](O)CC2CN1Cc1ccc2c3ccccc3n(C)c2c1 (stereo partly drawn) | 91.5
Fc1ccc(OCCNCCC2NCCc3c2[nH]c2ccccc32)cc1 (stereo not drawn) | 97.6

---

Some compounds, each annotated with its measured viability at 28.5 h, 10 µM.
test: in vitro; conditions: human, hela cells, % viability

compound | uom | viability at 28.5 h, 10 µM
N#CCCn1cc(C(=O)N2CCOCC2)c(-c2ccc(F)cc2)n1 | % | 95.5
Cc1c(C(=O)O)sc2ncn(CCCOc3ccc(Cl)cc3)c(=O)c12 | % | 106
Cn1cncc1C(=O)N1CCN(Cc2ccccc2)CC1 | % | 98.2
Cc1ccc(C2(C)CC(C)(C)N(C(=O)CSc3nnc[nH]3)c3ccccc32)cc1 (centres unmarked) | % | 89.2
CCCNc1cncc(-c2cccc(CO)c2)n1 | % | 95.7

---

experiment: in vitro; details: human, hela cells, % viability
Some molecules, each annotated with its measured viability at 28.5 h, 10 µM.

molecule | viability at 28.5 h, 10 µM (%)
CC(C)c1cccc(-n2cc(O)c(C(=O)NCCC(=O)N(C)C)n2)c1 | 86.5
c1ccc2c(Sc3cncc(N4CCCC4)n3)cccc2c1 | 88.2
COc1ccc(-c2cnc(N)c(-c3ccc(F)c(Cl)c3)n2)cn1 | 111
CC(=O)N1CCc2c([nH]c3ccccc23)[C@@]12CCN(Cc1ccc(F)cc1)C2 | 83
COc1ccc(CC(=O)NC(CCSC)c2nc3ccccc3[nH]2)cc1 (centres unmarked) | 82.6

---

test: in vitro; conditions: human, hela cells, % viability
Some compounds, each annotated with its measured viability at 28.5 h, 10 µM.
measure: viability at 28.5 h, 10 µM (%)

compound | experimental_result
COc1ccc(C(=O)Nc2ccccc2)cc1NC(=O)c1cc(C(F)(F)F)cc(C(F)(F)F)c1 | 90
COc1ccccc1C1(NC(=O)Cn2nc(C)cc2C)CCCC1 | 101
Cc1c(C)n(Cc2ccco2)c2ncnc(N3CCC(C(=O)O)CC3)c12 | 99.1
COc1cccc(C(=O)NCC(C)(C)SCc2ccc(F)cc2)c1 | 111
OC(CNc1nccnc1-c1ccco1)COc1ccccc1 (stereo not shown) | 96.7
Cn1c(C(=O)NCCc2ccc(S(=O)(=O)NC(=O)NC3CCCCC3)cc2)cc2ccccc21 | 128
CN1CCN(C(=O)c2cccc(-n3cccn3)c2)C(c2ccccc2)C1 (stereo not shown) | 90.5
NC(=O)c1c(NC(=O)NCc2cccnc2)sc2c1CCC2 | 70.3
CCCC/C(=N/N=C(\CCCC)c1ccncc1)c1ccncc1 | 120
CC(=O)N1c2ccccc2N(C(C)=O)C1c1ccc(C2N(C(C)=O)c3ccccc3N2C(C)=O)[nH]1 | 110
O=C(CCC(=O)c1ccc2c(c1)Cc1ccccc1-2)Nc1ccc(C(=O)O)cc1 | 110
Cc1ccc(NC(=O)CSCc2nc3ccccc3[nH]2)cc1 | 108
COCC1(C(=O)N2CC(=O)N(c3ccc(Cl)cc3)CC2C)CCC1 (stereo not shown) | 89.2
O=C(CSc1ncc(C(=O)O)n1-c1ccc(F)cc1)NCCc1ccc(F)cc1 | 93.3
COc1ccccc1-c1noc(CCCC(=O)Nc2cccc(C(F)(F)F)c2)n1 | 96.3
CC(C)c1nsc(NS(=O)(=O)c2cc(C(F)(F)F)cc(C(F)(F)F)c2)n1 | 84.9
O=C1CN(S(=O)(=O)c2ccc(NS(=O)(=O)c3ccc4ccccc4c3)cc2)CC(=O)N1 | 95.4
OC(COCc1ccc2c(c1)OCO2)CN1CCN(c2ccccn2)CC1 (stereo not shown) [CBK278246C] | 105
CSc1nnc(SCC(=O)N2CCC(C(F)(F)F)CC2)s1 | 111

---

assay: in vitro; details: human, hela cells, % viability
Some compounds, each annotated with its measured viability at 28.5 h, 10 µM.
measure: viability at 28.5 h, 10 µM (%)

compound | experimental_result
NCCC(=O)N(CCc1cc(C(F)(F)F)cc(C(F)(F)F)c1)c1ccc(Oc2ccccc2)cc1 [CBK002998T] | 97.7
O=c1oc(-c2cccc(F)c2)nc2cc(Cc3ccc4c(=O)oc(-c5cccc(F)c5)nc4c3)ccc12 [CBK262775] | 121
Cc1noc(C)c1NC(=O)c1cnc2ccccc2n1 [CBK200220] | 98.1
O=S(=O)(c1ccc(F)cc1)c1nc(-c2cccs2)oc1N1CCN(Cc2ccccc2)CC1 [CBK267672] | 89.7
COc1ccc(NC(=O)c2ccc(-c3ccc(Nc4ccc5c(c4)OCCO5)nc3)cc2)cc1 [CBK036815] | 88.7
COc1ccc(CN(C(=O)CCN2C(=O)c3ccccc3S2(=O)=O)c2ccccc2O)cc1 [CBK265973] | 99.4
Cn1cc(-c2nc(C3CCCCCN3C(=O)c3cccnc3)no2)cn1 (stereo not drawn) [CBK305387] | 87.9
c1nc(Sc2nccs2)cc(N2CCCC2)n1 [CBK093748] | 100
COCCOc1nccnc1N1CCNCC1 [CBK001903G] | 103

---

assay: in vitro; settings: human, hela cells, % viability

molecule | viability at 28.5 h, 10 µM, %
CC1(C)CC(=O)C2=C(C1)OC(=O)CC2c1ccc(Cl)cc1Cl (centres unmarked) | 93.8
COc1ccccc1NC(=O)c1c(NC(=O)c2cc([N+](=O)[O-])ccc2Cl)sc2c1CCCC2 | 88.7
COc1ccc(OCC(=O)Nc2ccccc2N2CCN(S(C)(=O)=O)CC2)cc1 | 89.9
O=S(=O)(Nc1ccc(-c2nnn[nH]2)cc1)c1c(F)cccc1F | 92.2
CC(C)n1ncc2c1NC(=O)CC2c1ccc2c(c1)n(C)c(=O)n2C (centres unmarked) | 108
COc1cc(-c2cncc(N(CCO)CCO)n2)cc(OC)c1OC | 112
CC1CCCCN1C(=O)Cn1cnc2c(Cl)cc(Cl)cc2c1=O (centres unmarked) | 90.3
O=c1[nH]c2ncc(-c3ccco3)nc2n1Cc1ccccn1 | 101
Cc1ccc(Cn2nc(NC(=O)C3CCCCC3)c3ccccc32)cc1 | 96.5
O=C1CCCN1CP(=O)(O)CN1CCCCC1 | 85.6
COc1ccc(-c2cc(C(=O)NCc3ccc4c(c3)OCO4)cnc2-c2ccccc2)cn1 | 97.9
COc1ccc(CN2C(=O)COC[C@@H]2[C@H](O)c2ccc(NC(=O)c3ccc(OC)cc3)cc2)cc1 | 95.9
O=C(C1CCCC1)N1C[C@@H]2CCCCN(Cc3cccnc3)[C@@H]2C1 | 101
c1ccc(Nc2c(-c3ccccc3)nc3[nH]cnn23)cc1 | 89.4
COc1ccc2[nH]c(Sc3c([N+](=O)[O-])nc(C)n3Cc3ccccc3)nc2c1 | 80.7
CN(C)S(=O)(=O)c1cccc(-c2cn3cccnc3n2)c1 | 71.4
N#CCCn1cc(C(=O)N2CCOCC2)c(-c2cccs2)n1 | 110
COc1ccccc1-c1cnc(N)c(NCc2ccccc2)n1 | 94.3
N#Cc1ccccc1NC(=O)C(CC(=O)O)NCc1ccccc1 (centres unmarked) | 83.6
CCN1C(=O)COC[C@@H]1[C@H](O)c1ccc(NC(=O)c2ccc(C#N)cc2)cc1 | 91.6
NC(=O)c1cccnc1-c1nc2ccccc2s1 | 80
Cc1ccc(CN2CC3CCCN3C[C@H]2C)o1 (some centres unmarked) | 87.1
Cc1cc2n(n1)C(c1ccc(C(=O)O)cc1)Nc1ccccc1-2 (centres unmarked) | 80.8
OCCN1CCN(c2nc(-c3ccc4c(c3)OCO4)cn3ccnc23)CC1 | 99.1
O=C(O)CCCNc1ccc(S(=O)(=O)N2CCCCC2)cc1 | 96.7
Nc1ncnc2c1c(I)cn2[C@@H]1O[C@H](CO)[C@H](O)C1O (some centres unmarked) | 16.5
CC(Oc1ccccc1)C(=O)N1CCN(C/C=C/c2ccccc2)CC1 (centres unmarked) | 98
CC1(NC(=O)CC[N+]23CCN(CC2)CC3)CS(=O)(=O)CC1S(=O)(=O)[O-] (centres unmarked) | 92
CCN(CC)CCC(=O)N1CC2(CCN(C(=O)OCc3ccccc3)CC2)c2ccccc21 | 106
CCOC(=O)C1CCN(S(=O)(=O)c2c(C)noc2C)CC1 | 96.9
COc1ccc2ccccc2c1[S+]([O-])NC1CCCCC1 (centres unmarked) | 80.7
O=C(CSC1=NC(=O)C(Cc2ccccc2)C(=O)N1)Nc1ncccn1 (centres unmarked) | 120
N[C@@H](Cc1c[nH]c2ccccc12)C(=O)N1CC[C@H]2NC(=O)[C@@H](Cc3ccccc3)NC(=O)C3(C/C=C/C[C@@H]2C1)CCOCC3 | 115
Cc1nn(CC(=O)NC2CC2)c(=O)c2cc3sccc3n12 | 94.9
COc1ccc(C)cc1C1(CNC(=O)N2CCC(C)(O)C2)CCOCC1 (centres unmarked) | 102
CSCCC(NC(=O)CCc1ccccc1)c1nnc2ccccn12 (centres unmarked) | 95.4
CCOC(=O)Cn1nnc(-c2ccc(Cl)cc2)n1 | 95.8
Cc1cc(NC(=O)C2CCN(CC3CCCO3)CC2)no1 (centres unmarked) | 110
